Test: Cytotoxicity against Homo sapiens (human) prostate cancer cells after 48 hr by SRB assay
Assay type: functional
Conditions: Cancer cell lines
observed-property: GI50 (µM)
# output: bare number, implied unit µM

The cases that follow already have their GI50 on record.
[
  {
    "compound": "CC1=NN(c2ccc(Br)cc2)C(=O)C1CC(=O)c1cc(O)ccc1O (stereo not drawn)",
    "observed-property": "GI50",
    "units": "µM",
    "test-value": 42.2
  },
  {
    "compound": "NS(=O)(=O)c1ccc(-n2nc(-c3ccc(Cl)cc3)cc2C2=CC(=O)C=CC2=O)cc1",
    "observed-property": "GI50",
    "units": "µM",
    "test-value": 21.6
  },
  {
    "compound": "CC(=O)NS(=O)(=O)c1ccc(-n2nc(-c3ccccc3)cc2C2=CC(=O)C=CC2=O)cc1",
    "observed-property": "GI50",
    "units": "µM",
    "test-value": 100
  },
  {
    "compound": "NS(=O)(=O)c1ccc(-n2nc(-c3ccccc3)cc2-c2cc(O)ccc2O)cc1",
    "observed-property": "GI50",
    "units": "µM",
    "test-value": 77.6
  },
  {
    "compound": "COc1ccc(OC)c(-c2cc(-c3ccc(Cl)cc3)nn2-c2ccccc2)c1",
    "observed-property": "GI50",
    "units": "µM",
    "test-value": 60.5
  }
]

Request: Answer with the recorded GI50 for the compound listed here: O=C(CC1C(=O)NN(c2ccc(Br)cc2)C1=O)c1cc(O)ccc1O (stereo not drawn)
Result: 22.7

Request: // Input: CC(=O)NS(=O)(=O)c1ccc(-n2nc(-c3ccccc3)cc2-c2cc(O)ccc2O)cc1 . Output its GI50 only.
Result: 100

Request: Report GI50, nothing else, for this compound: Oc1ccc(O)c(-c2cc(-c3ccc(Cl)cc3)nn2-c2ccccc2)c1
Result: 14.6

Request: Indicate its recorded GI50; the compound in question is COc1ccc(OC)c(-c2cc(-c3ccccc3)nn2-c2ccc(S(N)(=O)=O)cc2)c1
Result: 13.9

Request: In one line, give reported GI50 of the entry COc1ccc(OC)c(-c2cc(-c3ccccc3)nn2-c2ccc(S(=O)(=O)NC(C)=O)cc2)c1 .
Result: 12

Request: Consider the compound Cc1ccc(-c2cc(C3=CC(=O)C=CC3=O)n(-c3ccc(S(N)(=O)=O)cc3)n2)cc1 and give its recorded GI50.
Result: 36.5

Request: Give me measured GI50, please, for this compound: COc1ccc(OC)c(-c2cc(-c3ccc(Cl)cc3)nn2-c2ccc(S(=O)(=O)NC(C)=O)cc2)c1
Result: 3.61

Request: Please report GI50 for the following compound: O=C1C=CC(=O)C(c2cc(-c3ccc(Cl)cc3)nn2-c2ccccc2)=C1
Result: 36.5

Request: Find the measured GI50 of COc1ccc(OC)c(-c2cc(-c3ccc(Cl)cc3)nn2-c2ccc(S(N)(=O)=O)cc2)c1 and report it.
Result: 7.86

---

Measured TGI, listed per entry for reference.
Test: Cytotoxicity against Homo sapiens (human) leukemia cells after 48 hr by SRB assay
Type: functional
Details: Leukemia cell
All answers are understood in µM, so give the number only.

Some compounds with recorded TGI:
[
  {
    "compound": "CC1=NN(c2ccc(Br)cc2)C(=O)C1CC(=O)c1cc(O)ccc1O (centres undefined)",
    "observed-property": "TGI",
    "test-value": 35.8
  },
  {
    "compound": "Oc1ccc(O)c(-c2cc(-c3ccc(Cl)cc3)nn2-c2ccccc2)c1",
    "observed-property": "TGI",
    "test-value": 49.7
  },
  {
    "compound": "NS(=O)(=O)c1ccc(-n2nc(-c3ccc(Cl)cc3)cc2-c2cc(O)ccc2O)cc1",
    "observed-property": "TGI",
    "test-value": 61.4
  },
  {
    "compound": "COc1ccc(OC)c(-c2cc(-c3ccc(Cl)cc3)nn2-c2ccc(S(=O)(=O)NC(C)=O)cc2)c1",
    "observed-property": "TGI",
    "test-value": 50.1
  },
  {
    "compound": "O=C(CC1C(=O)NN(c2ccc(Br)cc2)C1=O)c1cc(O)ccc1O (centres undefined)",
    "observed-property": "TGI",
    "test-value": 50
  }
]

Request: Fill in reported TGI for this entry: O=C1C=CC(=O)C(c2cc(-c3ccc(Cl)cc3)nn2-c2ccccc2)=C1
Result: 87.1

Request: Identify the reported TGI for the following entry. Oc1ccc(O)c(-c2cc(-c3ccccc3)nn2-c2ccccc2)c1
Result: 100

Request: Look up and report measured TGI for this entry: CC(=O)NS(=O)(=O)c1ccc(-n2nc(-c3ccc(Cl)cc3)cc2-c2cc(O)ccc2O)cc1
Result: 92.6

Request: Tell me TGI reported for NS(=O)(=O)c1ccc(-n2nc(-c3ccc(Cl)cc3)cc2C2=CC(=O)C=CC2=O)cc1
Result: 84.6

---

Assay: Cytotoxicity against Homo sapiens (human) leukemia cells after 48 hr by SRB assay
Format: functional
Conditions: Leukemia cell
observed-property: TGI (µM)
Your answer is read as µM, so omit the unit and give the number.

Use these answered entries as a reference point.
[
  {
    "compound-structure": "COc1ccc(OC)c(-c2cc(-c3ccccc3)nn2-c2ccc(S(=O)(=O)NC(C)=O)cc2)c1",
    "test-value": 53.4
  },
  {
    "compound-structure": "COc1ccc(OC)c(-c2cc(-c3ccc(Cl)cc3)nn2-c2ccccc2)c1",
    "test-value": 78.2
  },
  {
    "compound-structure": "CC(=O)NS(=O)(=O)c1ccc(-n2nc(-c3ccccc3)cc2-c2cc(O)ccc2O)cc1",
    "test-value": 100
  },
  {
    "compound-structure": "COc1ccc(OC)c(-c2cc(-c3ccccc3)nn2-c2ccc(S(N)(=O)=O)cc2)c1",
    "test-value": 68.5
  },
  {
    "compound-structure": "CC(=O)NS(=O)(=O)c1ccc(-n2nc(-c3ccccc3)cc2C2=CC(=O)C=CC2=O)cc1",
    "test-value": 91.2
  }
]

Request: Look up and report measured TGI for this entry: Cc1ccc(-c2cc(C3=CC(=O)C=CC3=O)n(-c3ccc(S(N)(=O)=O)cc3)n2)cc1
Result: 94

Request: Provide only the value of recorded TGI for Cc1nn(-c2ccc(Br)cc2)c(C)c1CC(=O)c1cc(O)ccc1O
Result: 46.6

Request: Give TGI for the following compound: NS(=O)(=O)c1ccc(-n2nc(-c3ccccc3)cc2-c2cc(O)ccc2O)cc1
Result: 100

Request: Return TGI (reported value) for this compound: COc1ccc(OC)c(-c2cc(-c3ccc(Cl)cc3)nn2-c2ccc(S(N)(=O)=O)cc2)c1
Result: 52.1

---

Assay: Cytotoxicity against Homo sapiens (human) renal cancer cells after 48 hr by SRB assay
Type: functional
Conditions: Cancer cell lines
Classification field: criterion met = TGI at or over 50 µM; criterion not met = TGI under 50 µM.

These solved cases illustrate the format of a correct answer.
[
  {
    "molecule": "O=C1C=CC(=O)C(c2cc(-c3ccc(Cl)cc3)nn2-c2ccccc2)=C1",
    "class": "criterion met"
  },
  {
    "molecule": "NS(=O)(=O)c1ccc(-n2nc(-c3ccccc3)cc2-c2cc(O)ccc2O)cc1",
    "class": "criterion met"
  },
  {
    "molecule": "CC(=O)NS(=O)(=O)c1ccc(-n2nc(-c3ccccc3)cc2-c2cc(O)ccc2O)cc1",
    "class": "criterion met"
  },
  {
    "molecule": "COc1ccc(OC)c(-c2cc(-c3ccc(Cl)cc3)nn2-c2ccccc2)c1",
    "class": "criterion met"
  },
  {
    "molecule": "Cc1ccc(-c2cc(C3=CC(=O)C=CC3=O)n(-c3ccc(S(N)(=O)=O)cc3)n2)cc1",
    "class": "criterion met"
  },
  {
    "molecule": "CC(=O)NS(=O)(=O)c1ccc(-n2nc(-c3ccc(Cl)cc3)cc2-c2cc(O)ccc2O)cc1",
    "class": "criterion met"
  },
  {
    "molecule": "COc1ccc(OC)c(-c2cc(-c3ccccc3)nn2-c2ccc(S(N)(=O)=O)cc2)c1",
    "class": "criterion not met"
  },
  {
    "molecule": "COc1ccc(OC)c(-c2cc(-c3ccc(Cl)cc3)nn2-c2ccc(S(=O)(=O)NC(C)=O)cc2)c1",
    "class": "criterion met"
  }
]

Request: # check: TGI of COc1ccc(OC)c(-c2cc(-c3ccc(Cl)cc3)nn2-c2ccc(S(N)(=O)=O)cc2)c1 is greater than or equal to 50 µM
Result: criterion not met

Request: Reported TGI reaches at least 50 µM for CC1=NN(c2ccc(Br)cc2)C(=O)C1CC(=O)c1cc(O)ccc1O (stereo not drawn) ?
Result: criterion not met

Request: Hi, just wondering whether CC(=O)NS(=O)(=O)c1ccc(-n2nc(-c3ccccc3)cc2C2=CC(=O)C=CC2=O)cc1 shows TGI of 50 µM or higher.
Result: criterion met

Request: Confirm if TGI reported for the molecule Oc1ccc(O)c(-c2cc(-c3ccccc3)nn2-c2ccccc2)c1 is 50 µM or above.
Result: criterion met

Request: Exam item: decide whether the reported TGI for O=C(CC1C(=O)NN(c2ccc(Br)cc2)C1=O)c1cc(O)ccc1O (stereo not drawn) is at least 50 µM.
Result: criterion not met

Request: Please check the record Cc1nn(-c2ccc(Br)cc2)c(C)c1CC(=O)c1cc(O)ccc1O and state if its TGI is at or above 50 µM.
Result: criterion not met

Request: Does the reported TGI for NS(=O)(=O)c1ccc(-n2nc(-c3ccc(Cl)cc3)cc2-c2cc(O)ccc2O)cc1 fall at or above the 50 µM mark?
Result: criterion not met

Request: Check the entry Oc1ccc(O)c(-c2cc(-c3ccc(Cl)cc3)nn2-c2ccccc2)c1 : does TGI equal or exceed 50 µM?
Result: criterion not met

Request: Decide: TGI of COc1ccc(OC)c(-c2cc(-c3ccccc3)nn2-c2ccc(S(=O)(=O)NC(C)=O)cc2)c1 >= 50 µM?
Result: criterion not met
